Target: human TRPA1 channel (Homo sapiens (Human))
Assay: hTRPA1 CHO Ca2+ FLIPR Tetra assay, block of cinnamaldehyde induced calcium influx
Format: cell-based
Conditions: read-out: hTRPA1 IC50 (10 min); CHO cells expressing TRPA1; compounds incubated 10 minutes at room temperature before cinnamaldehyde agonist; Hill coefficient fixed to 1.5
pIC50: −log10 of the molar value.
quantity-measured: pIC50

Some solved entries appear below for comparison.
Cn1nnc2ncn(Cc3nc([C@@H]4[C@H]5C=C(c6ccccc6)C[C@H]54)no3)c(=O)c21 ... 7.98
Cc1cncc2ncn(Cc3nc([C@H]4C[C@](F)(c5ccc(Cl)cc5)C4)no3)c(=O)c12 ... 7.64
Cc1ccnc2ncn(Cc3nc([C@H]4[C@@H]5CN(c6cc(Cl)ccn6)C[C@@H]54)no3)c(=O)c12 ... 7.29
O=c1c2cccnc2ncn1Cc1nc([C@H]2C[C@H](c3ccc(Cl)cc3)C2)no1 ... 7.11

(A) Cn1cnc2ncn(Cc3nc([C@H]4[C@@H]5CN(c6ccc7scnc7c6)C[C@@H]54)no3)c(=O)c21
(B) Cn1cnc2ncn(Cc3nc([C@@H]4[C@H]5C=C(c6ccc(F)c(F)c6)C[C@H]54)no3)c(=O)c21
(C) Cn1cnc2ncn(Cc3nc([C@H]4[C@@H]5C=C(c6ccc7ncsc7c6)C[C@@H]54)no3)c(=O)c21
Arrange by pIC50, high to low. Lab note: record answer as labels in requested order. B, C, A
(B: 8.03, C: 7.80, A: 7.03)

###

Biological target: human TRPA1 channel (Homo sapiens (Human))
Test: hTRPA1 CHO Ca2+ FLIPR Tetra assay, block of cinnamaldehyde induced calcium influx
Format: cell-based
Details: read-out: hTRPA1 IC50 (90 min); CHO cells expressing TRPA1; compounds incubated 90 minutes at room temperature before cinnamaldehyde agonist; Hill coefficient fixed to 1.5; listed as 254
quantity-measured: pIC50
// scale note: pIC50 = -log10(conc_M); give the bare number

For the compound Cn1cnc2ncn(Cc3nc([C@@H]4[C@H]5C=C(c6cccc(F)c6F)C[C@H]54)no3)c(=O)c21 [Example Compound 254] , what pIC50 is on record? 8.68

###

Molecular target: human TRPA1 channel (Homo sapiens (Human))
Assay: hTRPA1 CHO Ca2+ FLIPR Tetra assay, block of cinnamaldehyde induced calcium influx
Format: cell-based
Settings: read-out: hTRPA1 IC50 (90 min); CHO cells expressing TRPA1; compounds incubated 90 minutes at room temperature before cinnamaldehyde agonist; Hill coefficient fixed to 1.5; listed as 282
quantity-measured: IC50 (nM)
Report as a plain number; the unit nM is understood.

// lookup IC50 | system=human TRPA1 channel (Homo sapiens (Human)) | key= Cn1cnc2ncn(Cc3nc([C@@H]4[C@H]5C=C(c6cccc(F)c6F)C[C@H]54)no3)c(=O)c21 [Example Compound 282] 3.1

###

Target: human TRPA1 channel (Homo sapiens (Human), UniProt O75762)
Sequence (O75762 whole entry): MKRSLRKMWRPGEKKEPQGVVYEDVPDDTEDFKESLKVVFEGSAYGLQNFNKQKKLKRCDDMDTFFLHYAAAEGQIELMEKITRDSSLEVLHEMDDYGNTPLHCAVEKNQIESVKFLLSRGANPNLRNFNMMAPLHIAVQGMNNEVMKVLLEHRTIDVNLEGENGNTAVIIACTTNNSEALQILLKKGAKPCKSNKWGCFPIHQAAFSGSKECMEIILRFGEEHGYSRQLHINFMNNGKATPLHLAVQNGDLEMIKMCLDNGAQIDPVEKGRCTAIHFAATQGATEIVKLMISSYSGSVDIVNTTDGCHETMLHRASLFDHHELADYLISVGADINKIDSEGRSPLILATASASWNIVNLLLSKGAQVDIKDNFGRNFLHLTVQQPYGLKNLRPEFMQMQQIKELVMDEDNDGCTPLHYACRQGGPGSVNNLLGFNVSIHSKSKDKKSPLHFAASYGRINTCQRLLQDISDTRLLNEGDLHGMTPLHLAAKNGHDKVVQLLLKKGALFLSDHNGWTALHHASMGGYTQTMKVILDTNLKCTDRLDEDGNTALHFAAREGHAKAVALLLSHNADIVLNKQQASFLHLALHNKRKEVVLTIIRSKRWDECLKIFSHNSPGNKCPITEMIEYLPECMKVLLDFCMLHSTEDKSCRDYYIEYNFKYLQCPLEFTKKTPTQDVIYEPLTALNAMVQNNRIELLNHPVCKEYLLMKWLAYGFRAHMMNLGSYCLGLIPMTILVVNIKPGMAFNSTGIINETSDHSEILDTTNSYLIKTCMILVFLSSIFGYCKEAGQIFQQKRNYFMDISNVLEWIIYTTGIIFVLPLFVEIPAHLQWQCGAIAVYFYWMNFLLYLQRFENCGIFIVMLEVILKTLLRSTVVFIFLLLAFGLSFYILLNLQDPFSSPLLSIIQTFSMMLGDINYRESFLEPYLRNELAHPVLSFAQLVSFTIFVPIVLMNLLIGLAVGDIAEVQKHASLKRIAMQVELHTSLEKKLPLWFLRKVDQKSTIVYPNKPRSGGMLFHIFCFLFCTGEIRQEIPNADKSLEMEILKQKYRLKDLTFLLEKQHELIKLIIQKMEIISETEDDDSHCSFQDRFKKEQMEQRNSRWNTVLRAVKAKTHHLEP
Experiment: hTRPA1 CHO Ca2+ FLIPR Tetra assay, block of cinnamaldehyde induced calcium influx
Type: cell-based
Settings: read-out: hTRPA1 IC50 (10 min); CHO cells expressing TRPA1; compounds incubated 10 minutes at room temperature before cinnamaldehyde agonist; Hill coefficient fixed to 1.5; listed as 282
quantity-measured: IC50 (nM)
Report as a plain number; the unit nM is understood.

For the compound Cn1cnc2ncn(Cc3nc([C@@H]4[C@H]5C=C(c6cccc(F)c6F)C[C@H]54)no3)c(=O)c21 [Example Compound 282] , what IC50 is on record? 16.9

###

Target: human TRPA1 channel (Homo sapiens (Human))
Test: hTRPA1 CHO Ca2+ FLIPR Tetra assay, block of cinnamaldehyde induced calcium influx
Format: cell-based
Conditions: read-out: hTRPA1 IC50 (90 min); CHO cells expressing TRPA1; compounds incubated 90 minutes at room temperature before cinnamaldehyde agonist; Hill coefficient fixed to 1.5
quantity-measured: IC50 (nM)

Some solved entries appear below for comparison.
O=c1c2cccnc2ncn1Cc1nc([C@H]2[C@@H]3CN(c4ccc(Cl)cn4)C[C@@H]32)no1 [Example Compound 151] ... 38
Cn1cnc2ncn(Cc3nc([C@H]4[C@@H]5CN(c6ccc(F)c(F)c6)C[C@@H]54)no3)c(=O)c21 [Example Compound 105] ... 3.9

(A) Cn1c(NC2CCOCC2)nc2ncn(Cc3nc([C@H]4[C@@H]5C=C(c6ccccc6)C[C@@H]54)no3)c(=O)c21 [Example Compound 245]
(B) Nc1ccc2c(=O)n(Cc3nc([C@H]4[C@@H]5C=C(c6ccccc6)C[C@@H]54)no3)cnc2n1 [Example Compound 239]
(C) Cn1cnc2ncn(Cc3nc([C@H]4[C@@H]5C=C(c6cccc(Cl)c6)C[C@@H]54)no3)c(=O)c21 [Example Compound 184]
(D) Cn1cc(-c2cccc(N3C[C@@H]4[C@H](C3)[C@H]4c3noc(Cn4cnc5ncn(C)c5c4=O)n3)c2)cn1 [Example Compound 200]
Provide the items ranked by increasing IC50. Lab note: record answer as labels in requested order. C, B, D, A
(C: 1.8 nM, B: 5.3 nM, D: 17 nM, A: 43 nM)

###

Biological target: human TRPA1 channel (Homo sapiens (Human), UniProt O75762)
Assay: hTRPA1 CHO Ca2+ FLIPR Tetra assay, block of cinnamaldehyde induced calcium influx
Type: cell-based
Settings: read-out: hTRPA1 IC50 (10 min); CHO cells expressing TRPA1; compounds incubated 10 minutes at room temperature before cinnamaldehyde agonist; Hill coefficient fixed to 1.5
quantity-measured: IC50 (nM)

Some solved entries appear below for comparison.
Cn1cnc2ncn(Cc3nc([C@H]4[C@@H]5CN(c6cccc(C#N)c6)C[C@@H]54)no3)c(=O)c21 ... 73.5
Cn1cnc2ncn(Cc3nc([C@@H]4[C@H]5C=C(c6ccc(F)cc6)C[C@H]54)no3)c(=O)c21 ... 10.9
Cc1ccnc2ncn(Cc3nc(C4Cc5ccccc5C4)no3)c(=O)c12 ... 531

(P) Cn1cnc2ncn(Cc3nc([C@H]4[C@@H]5CN(c6ccc(F)c(F)c6)C[C@@H]54)no3)c(=O)c21
(Q) Cn1cnc2ncn(Cc3nc([C@H]4[C@@H]5CN(c6ccc(Cl)nc6)C[C@@H]54)no3)c(=O)c21
(R) Cn1cnc2ncn(Cc3nc([C@H]4[C@@H]5CN(c6cccc(F)c6F)C[C@@H]54)no3)c(=O)c21
Arrange by IC50, high to low. Lab note: record answer as labels in requested order. Q, P, R

(I) Cc1ccnc2ncn(Cc3nc([C@H]4C[C@](F)(c5cccc(Cl)c5)C4)no3)c(=O)c12
(II) Cn1cnc2ncn(Cc3nc([C@H]4C[C@H](c5ccc6ccccc6c5)C4)no3)c(=O)c21
Among I and II , which shows a numerically higher IC50 result? To answer, give the label that identifies your chosen option. II
(II: 57.3 nM, I: 15.1 nM)

(A) Cn1cnc2ncn(Cc3nc([C@@H]4[C@H]5C=C(c6ccc(C#N)c(F)c6)C[C@H]54)no3)c(=O)c21
(B) Cn1cnc2ncn(Cc3nc([C@@H]4[C@H]5Oc6c(Cl)cccc6[C@H]54)no3)c(=O)c21
(C) Cn1cnc2ncn(Cc3nc([C@H]4[C@@H]5CN(c6ccncc6F)C[C@@H]54)no3)c(=O)c21
(D) Cc1ccc(N2C[C@@H]3[C@H](C2)[C@H]3c2noc(Cn3cnc4ncn(C)c4c3=O)n2)nc1
Provide the items ranked by increasing IC50. Lab note: record answer as labels in requested order. A, D, C, B
(A: 19.6 nM, D: 222 nM, C: 383 nM, B: 763 nM)

###

Molecular target: UniProtKB O75762
Test: hTRPA1 CHO Ca2+ FLIPR Tetra assay, block of cinnamaldehyde induced calcium influx
Assay type: cell-based
Conditions: read-out: hTRPA1 IC50 (10 min); CHO cells expressing TRPA1; compounds incubated 10 minutes at room temperature before cinnamaldehyde agonist; Hill coefficient fixed to 1.5
pIC50: −log10 of the molar value.
quantity-measured: pIC50

Cn1cnc2ncn(Cc3nc([C@H]4[C@@H]5CN(c6ccc(OC(F)(F)F)cc6)C[C@@H]54)no3)c(=O)c21 ... 7.37

(A) O=c1c2cccnc2ncn1Cc1nc([C@H]2[C@@H]3C=C(c4cc(Cl)ccn4)C[C@@H]32)no1
(B) Cn1cnc2ncn(Cc3nc([C@H]4[C@@H]5CN(c6cc(Cl)c(F)cc6F)C[C@@H]54)no3)c(=O)c21
(C) Cn1cnc2ncn(Cc3nc([C@H]4[C@@H]5CN(c6ccc(F)c(Cl)c6)C[C@@H]54)no3)c(=O)c21
(D) Cn1c(=O)c2c(ncn2Cc2nc([C@H]3[C@@H]4CN(c5cccc(Cl)c5)C[C@@H]43)no2)n(C)c1=O
(E) Cn1cnc2ncn(Cc3nc([C@H]4C[C@H](Cc5cccc(Cl)c5)C4)no3)c(=O)c21
Arrange by pIC50, high to low. Lab note: record answer as labels in requested order. C, E, B, D, A
(C: 8.01, E: 7.78, B: 7.53, D: 7.25, A: 6.50)
